- ASSAY_TARGET: NLRP3 (Homo sapiens, UniProt Q96P20)
- Sequence (Q96P20 whole entry): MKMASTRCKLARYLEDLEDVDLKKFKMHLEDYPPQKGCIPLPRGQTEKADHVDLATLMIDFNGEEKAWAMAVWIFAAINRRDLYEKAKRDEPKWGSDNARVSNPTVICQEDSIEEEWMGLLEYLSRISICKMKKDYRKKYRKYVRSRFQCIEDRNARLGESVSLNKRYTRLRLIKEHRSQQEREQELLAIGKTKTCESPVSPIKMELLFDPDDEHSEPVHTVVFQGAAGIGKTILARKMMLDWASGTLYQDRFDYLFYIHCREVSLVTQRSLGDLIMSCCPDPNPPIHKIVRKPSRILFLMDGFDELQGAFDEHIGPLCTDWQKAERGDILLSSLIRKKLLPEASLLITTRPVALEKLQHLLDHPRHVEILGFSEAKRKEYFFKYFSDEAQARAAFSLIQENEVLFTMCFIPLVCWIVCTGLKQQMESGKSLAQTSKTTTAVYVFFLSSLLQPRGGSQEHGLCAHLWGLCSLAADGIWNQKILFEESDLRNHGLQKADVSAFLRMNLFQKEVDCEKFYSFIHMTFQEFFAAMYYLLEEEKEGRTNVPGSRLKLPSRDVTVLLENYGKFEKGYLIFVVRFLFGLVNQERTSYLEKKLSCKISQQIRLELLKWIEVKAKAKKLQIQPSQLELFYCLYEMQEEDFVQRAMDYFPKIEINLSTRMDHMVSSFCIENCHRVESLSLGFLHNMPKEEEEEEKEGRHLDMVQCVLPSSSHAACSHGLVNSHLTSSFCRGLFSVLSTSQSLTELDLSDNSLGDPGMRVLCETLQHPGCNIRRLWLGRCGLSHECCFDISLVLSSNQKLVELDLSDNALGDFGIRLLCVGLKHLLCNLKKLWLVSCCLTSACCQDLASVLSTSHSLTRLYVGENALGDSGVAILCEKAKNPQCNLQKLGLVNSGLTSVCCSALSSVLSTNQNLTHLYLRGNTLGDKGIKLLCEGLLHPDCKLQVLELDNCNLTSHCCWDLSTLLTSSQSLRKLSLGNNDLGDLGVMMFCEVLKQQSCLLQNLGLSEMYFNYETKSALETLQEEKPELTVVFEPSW
- ASSAY_EXPLANATION: THP-1 cells pyroptosis assay
- Type: cell-based
- Parameters: Seed THP-1 cells (25,000 cells/well) containing 1.0 μg/ml LPS; host or cells: THP-1
- PARTICULARS: LPS 1.0 μg/ml, nigericin 5 μM, resazurin readout, 10 μM top dose (Example 2: top dose of 30 μM)
pIC50: −log10 of the molar value.
QUANTITY: pIC50

Consider the reported pIC50 for these compounds:
COMPOUND | RESULT_VALUE
O=S(=O)(c1nnc(Nc2c3c(cc4c2CCC4)CCC3)[nH]1)c1ccccc1F | ≥ 6.00
CN(C)CCn1cc(S(=O)(=O)c2nnc(Nc3c4c(cc5c3CCC5)CCC4)[nH]2)cn1 | ≥ 6.00
O=S(=O)(c1nnc(Nc2c3c(cc4c2CCC4)CCC3)[nH]1)N1CCC2(COC2)C1 | ≥ 5.30
COc1cc(-c2ccc3c(c2Nc2nnc(S(=O)(=O)N4CCC5(CCN5C)CC4)[nH]2)CCO3)ccn1 | ≥ 6.30
O=S(=O)(NCCc1ccccc1)c1nnc(Nc2c3c(cc4c2CCC4)CCC3)[nH]1 | ≥ 5.30

QUERY: Look up pIC50: CCN(CC)CCS(=O)(=O)Cc1nnc(Nc2c3c(cc4c2CCC4)CCC3)[nH]1
RESULT: ≥ 5.00

QUERY: Consider next the compound COc1cc(-c2cc(F)cc(C(C)C)c2Oc2nnc(S(=O)(=O)N3CCC(N(C)C)CC3)[nH]2)ccn1 in the same way.
RESULT: ≥ 5.30

QUERY: Same read-out for CC(C)(O)[C@@H]1CCN(S(=O)(=O)c2nnc(Nc3c4c(cc5c3CCC5)CCC4)[nH]2)C1 ?
RESULT: ≥ 6.00

----------
- ASSAY_TARGET: NLRP3 (Homo sapiens)
- ASSAY_EXPLANATION: Human whole blood IL1β release assay
- Assay type: cell-based
- PARTICULARS: LPS 1 μg/ml, nigericin 10 μM, IL-1β AlphaLisa, 10 μM top dose (Example 2: top dose of 30 μM), read-out: HWB IC50
- Protocol: For systemic delivery, the ability to inhibit NLRP3 when the compounds are present within the bloodstream is of great importance. […] Human whole blood in sodium-heparin or lithium-heparin tubes was obtained from healthy donors from a volunteer donor panel. • 1. […] IL-1β was measured according to the manufacturer protocol (Perkin Elmer-AlphaLisa IL-1 Kit AL220F-5000) • 8. […]
pIC50: −log10 of the molar value.
# maps each entry to its pIC50

MOLECULE | ASSAY_TARGET | pIC50
COc1cc(-c2ccc3c(c2Nc2nnc(S(=O)(=O)N4CCC5(CCN5C)CC4)[nH]2)CCC3)ccn1 [Example 204] | NLRP3 (Homo sapiens) | ≥ 6.00

We now examine a further molecule.
QUERY: Entry Cc1cc(-c2ccc3c(c2Nc2nnc(S(=O)(=O)N4CCC(N(C)C)CC4)[nH]2)CCO3)ccn1 [Example 217] : reported pIC50 = ?
RESULT: ≥ 5.00

----------
- ASSAY_TARGET: NLRP3 (Homo sapiens, UniProt Q96P20)
- ASSAY_EXPLANATION: Human whole blood IL1β release assay
- Format: cell-based
- PARTICULARS: LPS 1 μg/ml, nigericin 10 μM, IL-1β AlphaLisa, 10 μM top dose (Example 2: top dose of 30 μM), read-out: HWB IC50
Documented IC50 across a set of compounds

Consider the following illustrative entries.
COMPOUND | RESULT_VALUE
CN(C)CC1CN(S(=O)(=O)c2nnc(Nc3c4c(cc5c3CCC5)CCC4)[nH]2)CCO1 (stereo not drawn) | ≤ 5000 nM
[2H]C([2H])([2H])Oc1cc(-c2ccc3c(c2Nc2nnc(S(=O)(=O)N4CCC(N(C)C)CC4)[nH]2)CCC3)ccn1 | ≤ 500 nM
NC(=O)c1cccc(S(=O)(=O)c2nnc(Nc3c4c(cc5c3CCC5)CCC4)[nH]2)c1 | ≤ 10000 nM
CCN(CC)CCCS(=O)(=O)c1nnc(Nc2c3c(cc4c2CCC4)CCC3)[nH]1 | ≤ 1000 nM
CC(C)c1cc(F)cc(C(C)C)c1Nc1nnc(S(=O)(=O)N2CCC(N(C)C)CC2)[nH]1 | ≤ 5000 nM
CN1CCCC1CNS(=O)(=O)c1nnc(Nc2c3c(cc4c2CCC4)CCC3)[nH]1 (stereo not drawn) | ≤ 5000 nM

QUERY: Request the reported IC50 associated with COc1cc(-c2cc(F)cc(C(C)C)c2Cc2nnc(S(=O)(=O)N3CCC(CN(C)C)C3)[nH]2)ccn1 (stereo not drawn)
RESULT: ≤ 5000 nM

QUERY: Now the compound COc1cc(-c2cc(F)c3c(c2Nc2nnc(S(=O)(=O)N4CC5(CCN(C)C5)C4)[nH]2)CCC3)ccn1
RESULT: ≤ 500 nM

QUERY: // next record CN(C)CC1CCCN(S(=O)(=O)c2nnc(Nc3c4c(cc5c3CCC5)CCC4)[nH]2)C1 (stereo not drawn)
RESULT: ≤ 5000 nM

QUERY: Also need CN1CCCC12CCN(S(=O)(=O)c1nnc(Nc3c(-c4ccnc(OC(F)F)c4)ccc4c3CCC4)[nH]1)CC2 , thanks.
RESULT: ≤ 500 nM

QUERY: Again, but for CN(C)C1CCN(S(=O)(=O)c2nnc(Nc3c4c(c(F)c5c3CCC5)CCC4)[nH]2)CC1
RESULT: ≤ 1000 nM
